target: fusion protein PRK
Sequence (chain, as listed by the source): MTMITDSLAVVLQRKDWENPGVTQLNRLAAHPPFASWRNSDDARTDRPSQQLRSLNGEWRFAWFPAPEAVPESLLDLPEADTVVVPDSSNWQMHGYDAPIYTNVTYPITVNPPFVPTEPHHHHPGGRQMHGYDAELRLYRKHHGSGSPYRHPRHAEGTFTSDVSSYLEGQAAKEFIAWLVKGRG
READOUT_TYPE: relative cleavage efficiency (%)

OmpT protease (wild-type, E. coli mature OmpT protease) (protein) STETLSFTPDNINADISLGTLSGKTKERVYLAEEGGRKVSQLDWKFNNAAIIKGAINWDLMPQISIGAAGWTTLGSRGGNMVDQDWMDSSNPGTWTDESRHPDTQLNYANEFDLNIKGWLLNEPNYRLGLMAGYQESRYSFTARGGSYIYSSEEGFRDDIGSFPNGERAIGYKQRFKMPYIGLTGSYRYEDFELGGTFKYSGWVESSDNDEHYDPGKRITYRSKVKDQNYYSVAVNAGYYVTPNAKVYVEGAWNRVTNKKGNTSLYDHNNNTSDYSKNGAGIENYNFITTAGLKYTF :: 88
